Every entry's value here was drawn from ChEMBL document CHEMBL1201862.

Entries and their measured GI50 follow.
# System: HCT-116
# MEASUREMENT DESCRIPTION: NCI tumour cell line growth inhibition, 48 h
Active and inactive are the calls of the source. No stated cut-off is given here; in the data, active = GI50 up to about 1.1 µM and inactive = higher.
OBSERVATION TYPE: GI50

{"MOLECULE": "O=c1c2ccccc2sc2cccc(NCCCN3CCN(CCCNc4cccc5sc6ccccc6c(=O)c45)CC3)c12", "VALUE REPORTED": "> 100 µM (inactive)"}
{"MOLECULE": "C=C[C@]1(C)CCC2=C(CCC3C2(C)CCC[C@@]3(C)COC(C)=O)C1 (some centres not stated)", "VALUE REPORTED": "17.2 µM (inactive)"}
{"MOLECULE": "COCN(C)c1nc(N(C)C)nc(N(C)C)n1", "VALUE REPORTED": "> 100 µM (inactive)"}
{"MOLECULE": "Cc1cc(=O)n2nc(SCc3ccccc3)sc2n1", "VALUE REPORTED": "> 100 µM (inactive)"}
{"MOLECULE": "O=c1oc2ccccc2cc1-c1nc2ccccc2s1", "VALUE REPORTED": "5.08 µM (inactive)"}
{"MOLECULE": "COc1ccc(C2(O)c3ccccc3C(=O)N(C)C2(O)c2ccc(OC)cc2)cc1 (configuration not stated)", "VALUE REPORTED": "37.8 µM (inactive)"}
{"MOLECULE": "CC1(C)N=C2C(=O)c3c([nH]c4ccccc34)[C@]3(C)CCC1CC23 (some centres not stated)", "VALUE REPORTED": "> 6.25 µM (inactive)"}
{"MOLECULE": "CN(C)CN(C)c1nc(N(C)C)nc(N(C)CN(C)C)n1", "VALUE REPORTED": "32 µM (inactive)"}
{"MOLECULE": "CCCCCCCCCc1cc(=O)c2ccc(O)cc2o1", "VALUE REPORTED": "38.5 µM (inactive)"}
{"MOLECULE": "COC12CCC(=O)C=C1c1ccccc1N2C(C)=O (configuration not stated)", "VALUE REPORTED": "> 100 µM (inactive)"}
{"MOLECULE": "Cc1cc(C)c(C(=O)O)c(N)c1O", "VALUE REPORTED": "> 100 µM (inactive)"}
{"MOLECULE": "Cn1c(=O)c2nc(CSCc3ccccc3)[nH]c2n(C)c1=O", "VALUE REPORTED": "> 100 µM (inactive)"}
